Test system: Leptosphaeria nodorum
Assay: Leptosphaeria nodorum test (wheat)/preventive
Assay type: in vivo
Details: Parastagonospora nodorum, 192 h, application rate 40 ppm; wheat, preventive; evaluated 8 days after inoculation; read-out: Efficacy in % found
property_name: pest or weed control at 40 ppm (%)

CC(C)c1ccc(Cl)cc1CN(C(=O)c1c(C(F)F)nn(C)c1F)C1CC1 [A5] : 60
COC(=O)N(OC)c1ccccc1COc1ccn(-c2ccc(Cl)cc2)n1 [B3.17, pyraclostrobin] : 57
Cn1nc(C(F)F)c(C(=O)N(Cc2c(Cl)cccc2C(F)(F)F)C2CC2)c1F [A17] : 67
CON=C(C(=O)OC)c1ccccc1CON=C(C)c1cccc(C(F)(F)F)c1 [B3.22, trifloxystrobin] : 57

Where do these numbers come from? They come from patent US12642271B2.
